Entries and their measured aptazyme ON/OFF ratio follow.
B1: Pistol ribozyme (parent)
chain: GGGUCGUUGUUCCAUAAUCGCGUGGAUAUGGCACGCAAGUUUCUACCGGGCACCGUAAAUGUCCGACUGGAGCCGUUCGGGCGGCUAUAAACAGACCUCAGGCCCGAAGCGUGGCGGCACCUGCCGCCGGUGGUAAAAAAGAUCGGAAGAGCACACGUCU

- Variants of: B1
- Assay name: aptazyme ON/OFF ratio, guanine; higher = stronger switching; co-transcriptional cleavage with and without guanine
Enter a number only.

Answered examples (6):
[
  {
    "Mutation id": "U8G G9A U11G",
    "aptazyme ON/OFF ratio": 1.18
  },
  {
    "Mutation id": "U7G U8G G9U U10C C12A",
    "aptazyme ON/OFF ratio": 1.38
  },
  {
    "Mutation id": "U7C G9U U10G U11A C12A C13A",
    "aptazyme ON/OFF ratio": 1.2
  },
  {
    "Mutation id": "U8A U10A C12U C13U",
    "aptazyme ON/OFF ratio": 1.25
  },
  {
    "Mutation id": "U7C U8G G9A C13A",
    "aptazyme ON/OFF ratio": 1.14
  },
  {
    "Mutation id": "U8C G9U U11A C13A",
    "aptazyme ON/OFF ratio": 1.27
  }
]

Consider the variant U7C U8A G9A U11C and give its measured aptazyme ON/OFF ratio. 1.06

# repeat for U7A U8A U11A C12U C13G 1.28

// next record U8A G9U U10C U11A C12U 1.18

Same thing, different variant: U7A G9C U11G C12U C13G 1.36

Source listed as the RNAGym collection of RNA variant scans (doi:10.1021/acssynbio.7b00057).
